Measured values drawn from PubChem BioAssay AID248 for this set.

- System: L1210 leukemia ip in BDF1 mice, survival T/C
- ASSAY DETAILS: NCI In Vivo Anticancer Drug Screen. Data for tumor model L1210 Leukemia (intraperitoneal) in B6D2F1 (BDF1) mice
- RECORDED CONDITIONS: endpoint: mean survival time; dose: 200.0 mg/kg/injection; schedule: Q01DX009 (ip); vehicle: saline with Tween-80; higher = longer survival
Toxic doses and inconclusive results are not listed.
Assignment: determine reported T/C for the given compounds.

Record request: T/C value, item O=C1CCCN1C(=O)c1ccccc1 95 % of control

Next up: Cc1ccc(S(=O)(=O)N/N=C/C(O)C(O)C(O)C(O)CO)cc1 (stereo not drawn) 102 % of control

Now consider CCc1oc(=O)c2ccccc2c1-c1ccccc1 . 93 % of control

Now this one: Cc1ccc(/C(=C/c2ccc([N+](=O)[O-])cc2)C(=O)Nc2ccc(S(=O)(=O)F)cc2)cc1 89 % of control

Please do the same for CCCCNC(C)(C)CSS(=O)(=O)O as well. 103 % of control

Next up: [NH-]c1ccccc1C(=O)O.[NH-]c1ccccc1C(=O)O.[Ni+2] 105 % of control

Now try CCC(N)C(O)C(Cl)(Cl)Cl (stereo not drawn) . 98 % of control

Further, for CCOCC(C(=O)OCC)C(=O)OCC ? 111 % of control

And CC(=O)Nc1cc([N+](=O)[O-])cc(C)c1O ? 89 % of control

Would you kindly repeat that for COc1cc(/C=N\NC(=O)CC#N)cc(OC)c1OC ? 94 % of control

// repeat for CCOc1ccccc1NC(=O)Oc1ccc(-c2ccccc2)cc1 and report 100 % of control

Next record, please: Nc1cc(Cl)c(S(=O)(=O)O)cc1Cl 97 % of control

Same lookup for O=C(Cn1cc(F)c(=O)[nH]c1=O)c1ccc(Cl)s1 , please. 89 % of control

Another compound to check: O=C(O)/C=C/c1ccc(/C=C/C(=O)O)cc1 88 % of control

Now consider ClC12CCCC3CCCC(CCC1)C32 (stereo not drawn) and answer again. 90 % of control

Could you do the same for CCN(CC)P1(=O)NCCCO1 (stereo not drawn) , please? 94 % of control

Then O=C(O)CSc1ccc(NC(=O)Nc2ccccc2F)cc1 ? 89 % of control

Field entry: CCOC(=O)c1ccc2ccccc2c1 97 % of control

Try the compound COC(=O)Cc1ccc(Br)cc1 88 % of control

Now consider N#CCC(=O)N1CCc2ccccc2C1 . 97 % of control

Same for CNS(=O)(=O)c1ccc(N)cc1 110 % of control

Input ClCCOC(OCCCl)OCCCl 87 % of control

Another: O=C(CCc1ccc(O)cc1)N/N=C/c1ccc2c(c1)OCO2 97 % of control

# iterate: NC(=O)c1nc2c([nH]c1=O)CCCC2 94 % of control

# repeat for COC(OC)C1C=CC=CC=C1 95 % of control

Then CCCOCCC(c1ccccc1)(c1ccccc1)c1ccccc1 ? 87 % of control

What would you report for NC(=O)c1cc([N+](=O)[O-])ccc1N=NN(CCCl)CCCl ? 107 % of control

Also need CC(Cl)(Cl)[N+](=O)[O-] , thanks. 104 % of control
